Test Target: human σ1 receptor (Homo sapiens)
Sequence (Q99720 whole entry): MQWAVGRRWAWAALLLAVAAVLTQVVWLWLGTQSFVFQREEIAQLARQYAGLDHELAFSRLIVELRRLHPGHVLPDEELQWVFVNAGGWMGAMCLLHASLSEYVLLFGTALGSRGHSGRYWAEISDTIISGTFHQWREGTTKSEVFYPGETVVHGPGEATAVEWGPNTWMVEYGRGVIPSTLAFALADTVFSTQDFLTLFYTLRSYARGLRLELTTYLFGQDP
pKi: −log10 of the molar value.
Quantity Kind: pKi

Compound	pKi
Cc1cc(-c2nn(C)c(Cl)c2CN2CCC3(C2)CN(CCc2ccccc2)C3)no1 [Example 61]	6.30 to 7.00

Query: Please respond with reported pKi (system human σ1 receptor (Homo sapiens)) for Cc1cc(-c2nn(C)c(Cl)c2CN2CCC3(CC2)CCN(C(C)c2ccccc2)CC3)no1 (centres unmarked) [Example 65] .
Result: 6.30 to 7.00

Query: System human σ1 receptor (Homo sapiens). Read-out pKi. Item CCn1nc(-c2cccc(C(F)(F)F)n2)c(CC(=O)NC2CCN(CCC(C)(C)C)CC2)c1Cl [Example 223] . Report value.
Result: > 7.00

Query: Would you please give the reported pKi of CCn1nc(-c2cc(C3CC3)on2)c(C(=O)N2CCC3(CCN(CCC(C)(C)C)CC3)CC2)c1Cl [Example 190] with human σ1 receptor (Homo sapiens)?
Result: 6.30 to 7.00

Query: Print human σ1 receptor (Homo sapiens) pKi for CCn1nc(-c2cc(C(C)C)on2)c(C(=O)NC2CCN(CCC(C)(C)C)CC2)c1Cl [Example 162] .
Result: > 7.00

---

Test Target: human σ2/TMEM97 receptor (Homo sapiens, UniProt Q5BJF2)
Sequence (Q5BJF2 whole entry): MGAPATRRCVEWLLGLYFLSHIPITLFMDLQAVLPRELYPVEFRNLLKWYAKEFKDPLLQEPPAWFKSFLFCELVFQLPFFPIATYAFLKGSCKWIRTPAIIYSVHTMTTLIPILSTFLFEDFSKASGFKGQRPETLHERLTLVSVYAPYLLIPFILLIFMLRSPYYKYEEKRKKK
Assay Overview: Binding assay to human σ2/TMEM97 receptor ([3H]-DTG, transfected HEK-293 membranes)
Assay Conditions: class scale, read-out: Binding σ-2 Ki
Quantity Kind: Ki

Molecule	Ki
CCn1nc(-c2ccon2)c(CC(=O)NC2CCN(CCC(C)(C)C)CC2)c1Cl [Example 221]	< 100 nM
Cc1cc(-c2nn(C)c(Cl)c2C(=O)NC2CC3(CCN(Cc4ccccc4)CC3)C2)no1 [Example 153]	100 to 500 nM
CCn1ccc(-c2nn(C)c(Cl)c2C(=O)N2CCC3(CCN(CCC(C)(C)C)CC3)CC2)n1 [Example 179]	< 100 nM

Query: Annotate the molecule CCn1nc(-c2cc(C)on2)c(C(=O)N2CC3(CCN(CCC(C)(C)C)CC3)C2)c1Cl [Example 184] with its measured Ki.
Result: < 100 nM

---

Test Target: human σ2/TMEM97 receptor (Homo sapiens)
Construct: expressed in transfected cells; host or cells: HEK-293
Assay Overview: Binding assay to human σ2/TMEM97 receptor ([3H]-DTG, transfected HEK-293 membranes)
Assay Conditions: class scale, read-out: Binding σ-2 Ki
pKi: −log10 of the molar value.
Quick list: pKi per entry.

Query: Check human σ2/TMEM97 receptor (Homo sapiens) data and give pKi for Cc1cc(-c2nn(C)c(Cl)c2CN2CC[C@]3(C2)C[C@H](NCCC(C)(C)C)C3)no1 [Example 75] .
Result: > 7.00

Query: State recorded pKi with human σ2/TMEM97 receptor (Homo sapiens), entry CCn1nc(-c2cc(C)on2)c(C(=O)NC2CCC3(CC2)CN(CCC(C)(C)C)C3)c1Cl [Example 134] , no comment.
Result: > 7.00

Query: Tell me pKi of Cc1cc(-c2nn(C)c(Cl)c2CN2CCCC[C@@H](NCCC(C)C)C2)no1 [Example 10] when tested on human σ2/TMEM97 receptor (Homo sapiens).
Result: 6.30 to 7.00

Query: State the measured pKi (human σ2/TMEM97 receptor (Homo sapiens)) of CCc1cc(-c2nn(C)c(Cl)c2C(=O)N2CCC3(CCN(CCC(C)(C)C)CC3)CC2)no1 [Example 97]
Result: > 7.00

---

Test Target: human σ2/TMEM97 receptor (Homo sapiens)
Assay Overview: Binding assay to human σ2/TMEM97 receptor ([3H]-DTG, transfected HEK-293 membranes)
Assay Conditions: class scale, read-out: Binding σ-2 Ki
pKi: −log10 of the molar value.
Each entry below carries its recorded pKi.

Query: Dear colleague, please send me the reported pKi for Cc1conc1-c1nn(C)c(Cl)c1CN1CCCCC(NCCC(C)C)C1 (centres unmarked) when you can.
Result: 6.30 to 7.00

Query: Return the recorded pKi value; entry: CCc1cc(-c2nn(C)c(Cl)c2CN2CCCCC(NCCC(C)(C)C)C2)no1 (centres unmarked)
Result: 6.30 to 7.00

---

compounds and their reported pKi
Test Target: human σ1 receptor (Homo sapiens)
pKi: −log10 of the molar value.

Compound	Result
Cc1cc(-c2nn(C(C)C)c(Cl)c2C(=O)N2CC3(CCN(CCC(C)(C)C)CC3)C2)no1	6.00 to 6.30
Cc1cc(-c2nn(C)c(Cl)c2CN2CC[C@@H](CNCCC(C)(C)C)C2)no1	6.30 to 7.00
Cc1cc(-c2nn(C)c(Cl)c2CN2CCC(NCCC(C)(C)C)C2)no1 (stereo not shown)	6.30 to 7.00

# ---- query compound ----
Query: Complete the entry with pKi for Cc1cc(-c2nn(C)c(Cl)c2CN2CCCCC(CNCCC(C)C)C2)no1 (stereo not shown)
Result: 6.00 to 6.30

---

Dear all, this message contains Ki results, target or system human σ1 receptor (Homo sapiens).

Record excerpt, results attached:
Molecule	Ki
Cc1cc(-c2nn(C)c(Cl)c2CN2CCC(CNCCc3ccccc3)C2)no1 (stereo not shown)	100 to 500 nM
COc1ccc(-c2nn(C)c(Cl)c2CN2CCCCC(NCCC(C)C)C2)nc1 (stereo not shown)	500 to 1000 nM
CCc1nc(C)c(-c2nn(C)c(Cl)c2C(=O)N2CCC3(CCN(CCC(C)(C)C)CC3)CC2)o1	> 1000 nM

Query: Please report the measured Ki for Cc1cc(-c2nn(C)c(Cl)c2CN2CCC(CNCC(C)C)C2)no1 (stereo not shown) tested on human σ1 receptor (Homo sapiens).
Result: 100 to 500 nM

---

Test Target: human σ2/TMEM97 receptor (Homo sapiens)
Assay Overview: Binding assay to human σ2/TMEM97 receptor ([3H]-DTG, transfected HEK-293 membranes)
Assay Conditions: class scale, read-out: Binding σ-2 Ki
Quantity Kind: Ki

Field: example entries. Status: answers known.
Compound	Ki
CCOc1cccc(-c2nn(C)c(Cl)c2C(=O)N2CCC3(CCN(CCC(C)(C)C)CC3)CC2)n1	< 0.1 µM
Cc1cccc(-c2nn(C)c(Cl)c2CN2CC3(CCN(CCC(C)(C)C)CC3)CC2=O)n1	0.1 to 0.5 µM
Cc1cc(-c2nn(C)c(Cl)c2CN2CCC3(C2)CN(CCC(C)(C)C)C3)no1	< 0.1 µM
CCn1nc(-c2ccon2)c(C(=O)NC2CC3(CCN(CCC(C)(C)C)CC3)C2)c1Cl	< 0.1 µM
Cn1nc(-c2cccc(C(F)(F)F)n2)c(C(=O)N2CCCC3(CCN(CCC(C)(C)C)CC3)C2)c1Cl	< 0.1 µM
CCCN(CCC)CC1CCN(Cc2c(-c3cc(C)on3)nn(C)c2Cl)C1 (centres unmarked)	> 1 µM

Query: Supply Ki value. Item: Cc1cc(-c2nn(C)c(F)c2C(=O)N2CCC3(CCN(CCC(C)(C)C)CC3)CC2)no1
Result: < 0.1 µM

Query: Give the reported value of Ki for this record: Cc1cc(-c2nn(C)c(Cl)c2CN2CCC(CNCCC(C)C)C2)no1 (centres unmarked)
Result: 0.1 to 0.5 µM

---

Test Target: human σ2/TMEM97 receptor (Homo sapiens, UniProt Q5BJF2)
Assay Overview: Binding assay to human σ2/TMEM97 receptor ([3H]-DTG, transfected HEK-293 membranes)
Assay Conditions: class scale, read-out: Binding σ-2 Ki
Quantity Kind: Ki

Known results for molecules:
Molecule	Test Target	Ki
Cc1cc(-c2nn(C)c(Cl)c2C(=O)N2CCCC(CN(C)CCC(C)(C)C)C2)no1 (stereo not drawn) [Example 121]	human σ2/TMEM97 receptor (Homo sapiens, UniProt Q5BJF2)	0.1 to 0.5 µM
Cc1cc(-c2nn(C)c(Cl)c2CN2CCCC(CNCc3ccccc3)C2)no1 (stereo not drawn) [Example 55]	human σ2/TMEM97 receptor (Homo sapiens, UniProt Q5BJF2)	0.1 to 0.5 µM
Cc1cc(-c2nn(C)c(Cl)c2C(=O)N2CCCC3(CCN(Cc4ccc(F)c(F)c4)CC3)C2)no1 [Example 128]	human σ2/TMEM97 receptor (Homo sapiens, UniProt Q5BJF2)	< 0.1 µM

Query: Identify the reported Ki for the following entry. CCn1cc(-c2nn(C)c(Cl)c2C(=O)N2CCC3(CCN(CCC(C)(C)C)CC3)CC2)cn1 [Example 196]
Result: < 0.1 µM

Query: Tell me its Ki given Cc1cccc(-c2nn(C)c(Cl)c2C(=O)N2CCC3(CCN(CCC(C)(C)C)CC3)CC2)n1 [Example 189] as the entry.
Result: < 0.1 µM

Query: Tell me its Ki given Cn1nc(-c2cccc(C(F)(F)F)n2)c(C(=O)NC2CCC3(CC2)CCN(CCC(C)(C)C)CC3)c1Cl [Example 147] as the entry.
Result: < 0.1 µM

---

Test Target: human σ2/TMEM97 receptor (Homo sapiens)
Assay Overview: Binding assay to human σ2/TMEM97 receptor ([3H]-DTG, transfected HEK-293 membranes)
Assay Conditions: class scale, read-out: Binding σ-2 Ki
Listed here are compounds together with their documented Ki.

Below, each entry is followed by its recorded Ki result.
Compound	Ki
CCn1nc(-c2ccon2)c(CC(=O)NC2CC3(CCN(CCC(C)(C)C)CC3)C2)c1Cl	< 100 nM
COc1ccc(-c2nn(C)c(Cl)c2CN2CCCCC(NCCC(C)(C)C)C2)nc1 (stereo not shown)	> 1000 nM
Cc1cc(-c2nn(C)c(Cl)c2CN2CCCC(CNCC(C)C)C2)no1 (stereo not shown)	100 to 500 nM
Cn1nc(-c2cccc(O)n2)c(C(=O)N2CCC3(CCN(CCC(C)(C)C)CC3)CC2)c1Cl	100 to 500 nM
Cc1cc(-c2nn(C)c(Cl)c2C(=O)N2CCC3(CCN(CCC(C)C)CC3)CC2)no1	100 to 500 nM
CC(C)c1cc(-c2nn(C)c(Cl)c2C(=O)N2CCCC3(CCN(CCC(C)(C)C)CC3)C2)no1	< 100 nM
Cc1cc(-c2nn(C)c(Cl)c2C(=O)N2CCCCC(NCCC(C)C)C2)no1 (stereo not shown)	100 to 500 nM
Cc1cc(-c2nn(C)c(Cl)c2C(=O)N2CCCC3(CCN(CC(C)(C)C)CC3)C2)no1	< 100 nM

Query: # return recorded Ki for entry CCc1nc(C)c(-c2nn(C)c(Cl)c2C(=O)N2CCCC3(CCN(CCC(C)(C)C)CC3)C2)o1
Result: < 100 nM
